Test system: Leptosphaeria nodorum—LEPTNO
Assay: Glume Blotch of Wheat, in vivo whole plant, 24 Hour Protectant
Details: Leptosphaeria; 100 ppm spray, 24 hour protectant, wheat; control of fungal infection vs untreated plants; read-out: LEPTNO in vivo 1 Day Protectant
value.type: pest or weed control at 100 ppm

Known results for molecules:
INSERT INTO measurements (molecule, experimental_target, endpoint_value) VALUES
  ('COc1ccnc(C(=O)NC2CC(c3ccco3)CC(C)(C)C2)c1O (stereo not shown) [Compound 258]', 'Leptosphaeria nodorum—LEPTNO', '25 to 74%'),
  ('COc1ccnc(C(=O)NC2CCCC2=O)c1O (stereo not shown) [Compound 249]', 'Leptosphaeria nodorum—LEPTNO', '25 to 74%'),
  ('Cc1cccc(CNC(=O)c2ncccc2O)c1 [Compound 222]', 'Leptosphaeria nodorum—LEPTNO', '< 25%'),
  ('COc1ccnc(C(=O)NC2C3(C)CCC(C3)C2(C)C)c1O (stereo not shown) [Compound 288]', 'Leptosphaeria nodorum—LEPTNO', '25 to 74%'),
  ('Cc1ccc(CNC(=O)c2ncccc2O)cc1 [Compound 223]', 'Leptosphaeria nodorum—LEPTNO', '< 25%');

Here is the next item to consider.
[in] Please give the measured pest or weed control at 100 ppm for this molecule: COc1ccnc(C(=O)NC2C[C@H](C)C[C@H](c3ccccn3)C2)c1O (stereo partly shown) [Compound 259]
[out] 25 to 74%

Data credit: patent US6706740B2
